Assign yeast fitness to each entry below.
B1: tRNA (parent)
chain: GUUCCGUUGGCGUAAUGGUAACGCGUCUCCCUCCUAAGGAGAAGACUGCGGGUUCGAGUCCCGUACGGAACG

variants of: B1; assay: yeast fitness relative to wild type (ratio to wild type); higher = fitter; tRNA-Arg(CCU), competitive growth, 37 C, YPD
This sample holds only a part of the variants without activity.
Give bare numbers.

Take a look at these entries with their results.
variant_annotation	measured_attribute	numeric_value
G12C A42G A45G	yeast fitness	0.627
C55G G68C	yeast fitness	0.624
C27U G41A	yeast fitness	0.939
C5A C11U G44C C49U	yeast fitness	0.53
G6C C22U C30A C49U G52C	yeast fitness	0.683
C4A C22G G51C A65C	yeast fitness	0.731

Could you tell me yeast fitness for each of these variants? They are listed below.
1. A37G C46A
2. U19C C27G C30U
3. C5A U19G A43U
4. C27U A45U G52A
5. C11U A45C
6. U2C G67C
7. C22U U54A C55U

1. 0.774
2. 0.55
3. 0.656
4. 0.63
5. 0.836
6. 0.741
7. 0.776
